Value source: patent US20220339143A1

- assay_remarks: Single dose PK in healthy subjects (Cohorts 1, 2, S1 and S2), plasma
- Type: in vivo, human
- particulars: human, plasma, iv, 240 mg, 240 mg single IV infusion, healthy subjects; read-out: Cmax Median
- Text: […]
metric_name: Cmax (ng/mL)
State just the number; it will be interpreted in ng/mL.

Return reported Cmax. Input compound: COC(=O)N1CCC[C@H](NS(C)(=O)=O)[C@@H]1CO[C@H]1CC[C@@H](c2ccccc2)CC1
483

---

- assay_remarks: Single dose PK in healthy subjects (Cohorts 1, 2, S1 and S2), plasma
- Assay type: in vivo, human
- particulars: human, plasma, intravenous, 134.4 mg; 4 hr; read-out: Plasma concentration, Median
metric_name: concentration at 4 h (ng/mL)
State just the number; it will be interpreted in ng/mL.

Return reported concentration at 4 h. Input molecule: COC(=O)N1CCC[C@H](NS(C)(=O)=O)[C@@H]1CO[C@H]1CC[C@@H](c2ccccc2)CC1
308

---

- assay_remarks: Single dose PK in healthy subjects (Cohorts 1, 2, S1 and S2), plasma
- Type: in vivo, human
- particulars: human, plasma, intravenous, 240 mg; 1 hr; read-out: Plasma concentration, Mean
metric_name: concentration at 1 h
Please give the number followed by its unit.

Return reported concentration at 1 h. Input molecule: COC(=O)N1CCC[C@H](NS(C)(=O)=O)[C@@H]1CO[C@H]1CC[C@@H](c2ccccc2)CC1
345 ng/mL

---

- assay_remarks: Single dose PK in healthy subjects (Cohorts 1, 2, S1 and S2), plasma
- Format: in vivo, human
- particulars: human, plasma, intravenous, 134.4 mg; 0.5 hr; read-out: Plasma concentration, Maximum
metric_name: concentration at 0.5 h (ng/mL)
State just the number; it will be interpreted in ng/mL.

Return reported concentration at 0.5 h. Input compound: COC(=O)N1CCC[C@H](NS(C)(=O)=O)[C@@H]1CO[C@H]1CC[C@@H](c2ccccc2)CC1
201

---

- assay_remarks: Single dose PK in healthy subjects (Cohorts 1, 2, S1 and S2), plasma
- Type: in vivo, human
- particulars: human, plasma, intravenous, 14 mg; 6 hr; read-out: Plasma concentration, Q3
metric_name: concentration at 6 h (ng/mL)
State just the number; it will be interpreted in ng/mL.

Return reported concentration at 6 h. Input compound: COC(=O)N1CCC[C@H](NS(C)(=O)=O)[C@@H]1CO[C@H]1CC[C@@H](c2ccccc2)CC1 [Compound A]
34.4

---

- assay_remarks: Single dose PK in healthy subjects (Cohorts 1, 2, S1 and S2), plasma
- Assay type: in vivo, human
- particulars: human, plasma, intravenous, 112 mg; 1 hr; read-out: Plasma concentration, Mean
- Description: […]
metric_name: concentration at 1 h
Please give the number followed by its unit.

Return reported concentration at 1 h. Input compound: COC(=O)N1CCC[C@H](NS(C)(=O)=O)[C@@H]1CO[C@H]1CC[C@@H](c2ccccc2)CC1 [Compound A]
154 ng/mL

---

- assay_remarks: Single dose PK in healthy subjects (Cohorts 1, 2, S1 and S2), plasma
- Format: in vivo, human
- particulars: human, plasma, intravenous, 14 mg; 8 hr; read-out: Plasma concentration, Q3
metric_name: concentration at 8 h (ng/mL)
State just the number; it will be interpreted in ng/mL.

Return reported concentration at 8 h. Input compound: COC(=O)N1CCC[C@H](NS(C)(=O)=O)[C@@H]1CO[C@H]1CC[C@@H](c2ccccc2)CC1 [Compound A]
32.3
